Reference source for all entries: patent US8754068B2

# EC50 per record follows
- System: recombinant NL4-3 virus (Renilla luciferase in nef, Gag P373S)
- Test Method Notes: HIV cell culture assay (luciferase reporter virus in MT-2 cells)
- Assay type: cell-based
- Experimental Conditions: NL43

{"Cpd Smiles": "C=C(C)[C@@H]1CC[C@]2(CO)CC[C@]3(C)[C@H](CC[C@@H]4[C@@]5(C)CC=C(c6ccc(O)cc6C)C(C)(C)[C@@H]5CC[C@]43C)[C@@H]12", "EC50": "> 1 µM"}

// EC50 lookup, key: "C=C(C)[C@@H]1CC[C@]2(C(=O)O)CC[C@]3(C)[C@H](CC[C@@H]4[C@@]5(C)CC=C(c6ccc(O)cc6)C(C)(C)[C@@H]5CC[C@]43C)[C@@H]12"
< 1 µM

// EC50 lookup, key: "C=C(C)[C@@H]1CC[C@]2(CO)CC[C@]3(C)[C@H](CC[C@@H]4[C@@]5(C)CC=C(c6cnc(C(=O)O)nc6)C(C)(C)[C@@H]5CC[C@]43C)[C@@H]12"
> 1 µM

// EC50 lookup, key: "C[C@H]1[C@H](C)CC[C@]2(C(=O)O)CC[C@]3(C)C(=CC[C@@H]4[C@@]5(C)CC=C(c6ccc(C(=O)O)cc6)C(C)(C)[C@@H]5CC[C@]43C)[C@H]12"
< 1 µM

// EC50 lookup, key: "C=C(C)[C@@H]1CC[C@]2(CO)CC[C@]3(C)[C@H](CC[C@@H]4[C@@]5(C)CC=C(c6ccc(C(=O)O)c(F)c6)C(C)(C)[C@@H]5CC[C@]43C)[C@@H]12"
< 1 µM

---

- Test system: recombinant NL4-3 virus (Renilla luciferase in nef, Gag P373S)
- Test Method Notes: HIV cell culture assay (luciferase reporter virus in MT-2 cells)
- Format: cell-based
- Experimental Conditions: NL43
pEC50: −log10 of the molar value.
Quantity Kind: pEC50

Here's what some known entries look like.
{"Compound": "C=C(C)[C@@H]1CC[C@]2(CO)CC[C@]3(C)[C@H](CC[C@@H]4[C@@]5(C)CC=C(c6ccc(C(=O)O)c(C(F)(F)F)c6)C(C)(C)[C@@H]5CC[C@]43C)[C@@H]12 [Example 5s]", "Measurement Target": "recombinant NL4-3 virus (Renilla luciferase in nef, Gag P373S)", "Observed Measurement": "> 6.00"}
{"Compound": "C=C(C)[C@@H]1CC[C@]2(CO)CC[C@]3(C)[C@H](CC[C@@H]4[C@@]5(C)CC=C(c6ccc(C(=O)O)c(C(=O)O)c6)C(C)(C)[C@@H]5CC[C@]43C)[C@@H]12 [Example 5t]", "Measurement Target": "recombinant NL4-3 virus (Renilla luciferase in nef, Gag P373S)", "Observed Measurement": "> 6.00"}

Next:
// pEC50 lookup, key: C=C(C)[C@@H]1CC[C@]2(C(=O)O)CC[C@]3(C)[C@H](CC[C@@H]4[C@@]5(C)CC=C(c6ccc(C(=O)O)c(F)c6)C(C)(C)[C@@H]5CC[C@]43C)[C@@H]12 [Example 4d]
> 6.00

---

# EC50 per record follows
- Tested on: recombinant NL4-3 virus (Renilla luciferase in nef, Gag P373S)
- Test Method Notes: HIV cell culture assay (luciferase reporter virus in MT-2 cells)
- Type: cell-based
- Experimental Conditions: NL43

{"Cpd Smiles": "C=C(C)[C@@H]1CC[C@]2(C(=O)O)CC[C@]3(C)[C@H](CC[C@@H]4[C@@]5(C)CC=C(c6cccc(CCC(=O)O)c6)C(C)(C)[C@@H]5CC[C@]43C)[C@@H]12", "EC50": "< 1000 nM"}
{"Cpd Smiles": "CC(C)[C@@H]1CC[C@]2(CO)CC[C@]3(C)[C@H](CC[C@@H]4[C@@]5(C)CC=C(c6ccc(C(=O)O)cc6)C(C)(C)[C@@H]5CC[C@]43C)[C@@H]12", "EC50": "< 1000 nM"}
{"Cpd Smiles": "C=C(C)[C@@H]1CC[C@]2(CO)CC[C@]3(C)[C@H](CC[C@@H]4[C@@]5(C)CC=C(c6ccc(C(=O)O)s6)C(C)(C)[C@@H]5CC[C@]43C)[C@@H]12", "EC50": "230 nM"}
{"Cpd Smiles": "C=C(C)[C@@H]1CC[C@]2(CO)CC[C@]3(C)[C@H](CC[C@@H]4[C@@]5(C)CC=C(c6cc(C(=O)O)no6)C(C)(C)[C@@H]5CC[C@]43C)[C@@H]12", "EC50": "< 1000 nM"}

Next:
Request body: readout EC50, system recombinant NL4-3 virus (Renilla luciferase in nef, Gag P373S), query "C=C(C)[C@@H]1CC[C@]2(CO)CC[C@]3(C)[C@H](CC[C@@H]4[C@@]5(C)CC=C(c6ccc(C(=O)O)cc6F)C(C)(C)[C@@H]5CC[C@]43C)[C@@H]12" . Return the value.
< 1000 nM
